Source: paper PMC5405074

- assayComment: Biodistribution of ^111In-labeled peptides in B16-F1 melanoma-bearing mice
- Assay type: in vivo, mouse (B6D2F1)
- appliedConditions: female, B6D2F1, mouse, lung, iv, total radioactivity; ^111In-labeled peptide, 185 kBq i.v., 24 h; mean ± SEM of three experiments, n = 5 animals each; read-out: Lung uptake
Non-standard residues stand in square brackets, D forms with d. Residues, ends and D or L forms follow the SMILES beside them. *: point of attachment. DOTA = O=C(O)CN1CCN(CC(=O)O)CCN(CC(=O)*)CCN(CC(=O)O)CC1; pY = N[C@@H](Cc1ccc(OP(=O)(O)O)cc1)C(=O)O; Nle = CCCC[C@H](N)C(=O)O
# reported tissue uptake at 24 h; entries follow
Numbers only here, please. The scale is %ID/g.

The cases that follow already have their tissue uptake at 24 h on record.
Record summary for CCCC[C@H](NC(=O)[C@H](Cc1ccc(OP(=O)(O)O)cc1)NC(=O)CNC(=O)CN1CCN(CC(=O)O)CCN(CC(=O)O)CCN(CC(=O)O)CC1)C(=O)N[C@@H](CC(=O)O)C(=O)N[C@@H](Cc1c[nH]cn1)C(=O)N[C@H](Cc1ccccc1)C(=O)N[C@@H](CCCNC(=N)N)C(=O)N[C@@H](Cc1c[nH]c2ccccc12)C(N)=O [DOTA-Phospho-MSH2-9] ({DOTA}-G[pY][Nle]DH[dF]RW-NH2) : reported tissue uptake at 24 h = 0.04

Short answer for CCCC[C@H](NC(C)=O)C(=O)N[C@@H](CC(=O)O)C(=O)N[C@@H](Cc1c[nH]cn1)C(=O)N[C@H](Cc1ccccc1)C(=O)N[C@@H](CCCNC(=N)N)C(=O)N[C@@H](Cc1c[nH]c2ccccc12)C(=O)NCC(=O)N[C@@H](CCCCNC(=O)CN1CCN(CC(=O)O)CCN(CC(=O)O)CCN(CC(=O)O)CC1)C(N)=O [DOTA-NAP-amide, reference compound] : tissue uptake at 24 h was 0.05

// moving on: another record for tissue uptake at 24 h
The compound listed as CCCC[C@H](NC(C)=O)C(=O)N[C@@H](CC(=O)O)C(=O)N[C@@H](Cc1c[nH]cn1)C(=O)N[C@H](Cc1ccccc1)C(=O)N[C@@H](CCCNC(=N)N)C(=O)N[C@@H](Cc1c[nH]c2ccccc12)C(=O)NCC(=O)N[C@@H](CCCCNC(=O)CN1CCN(CC(=O)O)CCN(CC(=O)O)CCN(CC(=O)O)CC1)C(=O)N[C@H](CC(=O)O)C(=O)N[C@H](CC(=O)O)C(=O)O [DOTA-NAP-D-Asp-D-Asp] (Ac-[Nle]DH[dF]RWGK(DOTA)[dD][dD]-OH) shows tissue uptake at 24 h equal to 0.04
